molecular target: ATP-dependent 6-phosphofructokinase (Trypanosoma brucei brucei); assay: qHTS Assay to Find Inhibitors of T. brucei phosphofructokinase: hit validation (AID 492961); settings: T. brucei PFK, ADP-Glo luminescence; series mostly up to 51.4 µM
Records with an inconclusive call do not appear. The source made the active and inactive calls. Calls follow the shape of the dose curve; as a rule, active = well fitted inhibition curve with a large enough effect; inconclusive = small, poorly fitted or top-dose-only effect, or effect the other way; inactive = flat fitted curve, though single readings scatter.
Choose one outcome from this list and give only that: yes (1) (active), no (0) (inactive)

Which result was noted for this molecule in the test: Clc1ccc(Cl)cc1
no (0)

Which result was noted for this molecule in the test: CCCCCCCCCC(=O)O[C@H]1CC[C@H]2[C@@H]3CCC4=CC(=O)CC[C@]4(C)[C@H]3CC[C@]12C
no (0)

Which result was noted for this molecule in the test: CCOC(=O)c1ccccc1C(=O)OCC
no (0)

Which result was noted for this molecule in the test: c1ccc(C2(N3CCCC3)CCCCC2)cc1
no (0)

Which result was noted for this molecule in the test: COc1ccc2c3c1O[C@H]1C(=O)CC[C@H]4[C@@H](C2)N(C)CC[C@]314
no (0)

Which result was noted for this molecule in the test: O=C(NC(=O)c1c(F)cccc1F)Nc1ccc(Cl)c(Oc2ncc(C(F)(F)F)cc2Cl)c1
no (0)

Which result was noted for this molecule in the test: S=C=S
no (0)

Which result was noted for this molecule in the test: ClC=C(Cl)Cl
no (0)

Which result was noted for this molecule in the test: C=CCN1CC[C@]23c4c5ccc(O)c4O[C@H]2[C@@H](O)C=C[C@H]3[C@H]1C5
no (0)

Which result was noted for this molecule in the test: CCCC(=O)OC(C(Cl)(Cl)Cl)P(=O)(OC)OC (centres undefined)
no (0)

Which result was noted for this molecule in the test: C[C@@H](Cc1ccccc1)NCCC(c1ccccc1)c1ccccc1
no (0)

Which result was noted for this molecule in the test: O=[N+]([O-])C(Br)(CO)CO
yes (1)

Which result was noted for this molecule in the test: ClCC1CO1 (centres undefined)
no (0)

Which result was noted for this molecule in the test: CC1CCC(C(C)C)C(OC(=O)c2ccccc2N)C1 (centres undefined)
no (0)

Which result was noted for this molecule in the test: O=C/C=C/c1ccccc1
no (0)

Which result was noted for this molecule in the test: C=CCN=C=S
no (0)

Which result was noted for this molecule in the test: N#CC1(N2CCCCC2)CCCCC1
no (0)

Which result was noted for this molecule in the test: CCC1(c2ccccc2)C(=O)NC(=O)N(C(=O)c2ccccc2)C1=O (centres undefined)
no (0)

Which result was noted for this molecule in the test: CCCCNCC(O)c1ccc(O)cc1 (centres undefined)
no (0)

Which result was noted for this molecule in the test: CC[N+](C)(CC)CCOC(=O)C(O)(c1ccccc1)c1ccccc1
no (0)

Which result was noted for this molecule in the test: N#CC(C#N)=Cc1cc(O)c(O)c(O)c1
no (0)

Which result was noted for this molecule in the test: CC(C)(C)c1cc(O)ccc1O
no (0)

Which result was noted for this molecule in the test: [O]=[Cd]
no (0)

Which result was noted for this molecule in the test: Clc1ccccc1Cl
no (0)

Which result was noted for this molecule in the test: CCCC(C)C1(CC)C(=O)NC(=O)NC1=O (centres undefined)
no (0)

Which result was noted for this molecule in the test: C#CC(C)(O)CC (centres undefined)
no (0)

Which result was noted for this molecule in the test: c1ccc2sc(SNC3CCCCC3)nc2c1
no (0)

Which result was noted for this molecule in the test: C=CCN(C1=NCCN1)c1c(Cl)cccc1Cl
no (0)

Which result was noted for this molecule in the test: COc1ccc(OC)c(C(O)C(C)N)c1 (centres undefined)
no (0)

Which result was noted for this molecule in the test: O=C1CC[C@@]2(O)C3Cc4ccc(O)c5c4C2(CCN3CC2CC2)[C@H]1O5 (some centres undefined)
no (0)

Which result was noted for this molecule in the test: CN1c2ccccc2C(NCCCCCCC(=O)O)c2ccc(Cl)cc2S1(=O)=O (centres undefined)
no (0)

Which result was noted for this molecule in the test: O=c1[nH]c(=O)n(Cl)c(=O)n1Cl
no (0)

Which result was noted for this molecule in the test: CC(=O)OC1CN2CCC1CC2 (centres undefined)
no (0)

Which result was noted for this molecule in the test: C=CCN1CCC23c4c5ccc(O)c4O[C@H]2C(=O)CC[C@@]3(O)C1C5 (some centres undefined)
no (0)

Which result was noted for this molecule in the test: O=C1CN=C(c2ccccc2)c2cc(Cl)ccc2N1CC1CC1
no (0)

Which result was noted for this molecule in the test: CCC1C(C)=NN=C(c2ccc(OC)c(OC)c2)c2cc(OC)c(OC)cc21 (centres undefined)
no (0)

Which result was noted for this molecule in the test: O=C1CCCCC1CN1CCCCC1 (centres undefined)
no (0)

Which result was noted for this molecule in the test: CCC1(CC)C(=O)NC(=O)N(C)C1=O
no (0)

Which result was noted for this molecule in the test: c1ccc2cc(CC3=NCCN3)ccc2c1
no (0)

Which result was noted for this molecule in the test: O=C1CN(O)C(c2ccccc2)=c2cc(Cl)ccc2=N1
no (0)

Which result was noted for this molecule in the test: CC(C)CCON=O
no (0)

Which result was noted for this molecule in the test: CCOP(=O)(OCC)O/C(=C/Cl)c1ccc(Cl)cc1Cl
no (0)

Which result was noted for this molecule in the test: C[N+]1(C)CCCCC1COC(=O)C(O)(c1ccccc1)c1ccccc1 (centres undefined)
no (0)

Which result was noted for this molecule in the test: CCCCCCCCOC(=O)c1ccccc1C(=O)OCCCCCCCC
no (0)
